Reported cytotoxicity at 10 µM values are given for each entry in this list.
# ASSAY EXPLANATION: Toxicity liver stage against HepG2, at 10uM
# Type: cell-based
# Parameters: test concentration 10 uM, cell line HepG2-A16-CD81EGFP
# ASSAY CONTEXT: human, HepG2-A16-CD81EGFP cells; read-out: INHIBITION
All answers are understood in %, so give the number only.

{"COMPOUND": "O=C(NCCOc1ccc(Cl)cc1)N1CCS(=O)(=O)CC1", "UNIT DESCRIPTOR": "%", "cytotoxicity at 10 µM": 0.89}

*Q* Identify measured cytotoxicity at 10 µM corresponding to COc1cccc(N2CC3(CCN(c4ccncn4)C3)CC2=O)c1 (stereo not drawn)
*A* 8.61

*Q* Given the compound O=C(CC1CCc2ccccc21)NCCSc1cnn[nH]1 (stereo not drawn) , write its reported cytotoxicity at 10 µM.
*A* 0.878

*Q* Output measured cytotoxicity at 10 µM for this item: COc1ccccc1CC(=O)N1CCC(NCc2cccnc2)CC1
*A* -5.7

*Q* State its cytotoxicity at 10 µM: Cc1nn(C)c2cnn(CC(=O)NCc3cccs3)c12
*A* 6.28

*Q* # return recorded cytotoxicity at 10 µM for input CNC(=O)[C@@]12CCC3(CCN(C(=O)COC)CC3)[C@@H]1CN(S(C)(=O)=O)C2
*A* 4.53

*Q* Provide measured cytotoxicity at 10 µM value, entry: OCc1csc(N2CCCC(COc3cccc(F)c3)C2)n1 (stereo not drawn)
*A* -0.176

*Q* # return recorded cytotoxicity at 10 µM for entry N#Cc1cccc(N2CC3(CCN(C(=O)c4ccncc4)C3)CC2=O)c1 (stereo not drawn)
*A* -1.75

*Q* Look up and state reported cytotoxicity at 10 µM for CCOc1ccc(C(F)(F)F)cc1NCc1nc(C)c(C)o1
*A* -45.3

*Q* Answer with the recorded cytotoxicity at 10 µM for the compound listed here: CN1CCN(Cc2ccccc2CNC(=O)c2ccc(Cl)cc2F)CC1
*A* 15.5

* * *

# ASSAY EXPLANATION: Toxicity liver stage against HepG2, at 10uM
# Assay type: cell-based
# Set-up: test concentration 10 uM, cell line HepG2-A16-CD81EGFP
# ASSAY CONTEXT: human, HepG2-A16-CD81EGFP cells; read-out: INHIBITION
OBSERVATION TYPE: cytotoxicity at 10 µM (%)
# number only, unit % dropped from output

Past entries and their recorded results:
{"COMPOUND": "CC(O)C(=O)N1CCC(c2[nH]ncc2-c2ccccc2)CC1 (centres undefined)", "cytotoxicity at 10 µM / %": -2}
{"COMPOUND": "O=C(NCc1ncc(-c2ccccc2)o1)NC1CCC(O)CC1 (centres undefined)", "cytotoxicity at 10 µM / %": -41.8}
{"COMPOUND": "CNc1cc(N2CCCC2CNCc2cccnc2C)ncn1 (centres undefined)", "cytotoxicity at 10 µM / %": 0.759}
{"COMPOUND": "CNc1cc(CNC(=O)c2ccccn2)nc(-c2ccncc2)n1", "cytotoxicity at 10 µM / %": -2.63}

*Q* For the compound CCn1cc(C(=O)N(C)[C@@H]2CC[C@@H](N3CCCC3)[C@@H]2O)c(C)n1 , give its measured cytotoxicity at 10 µM value.
*A* 5.92

*Q* Provide measured cytotoxicity at 10 µM value, entry: c1ccc2c(N3CCCCC3Cn3cccn3)ncnc2c1 (centres undefined)
*A* -5.33

* * *

# ASSAY EXPLANATION: Toxicity liver stage against HepG2, at 10uM
# Format: cell-based
# Design: test concentration 10 uM, cell line HepG2-A16-CD81EGFP
# ASSAY CONTEXT: human, HepG2-A16-CD81EGFP cells; read-out: INHIBITION
OBSERVATION TYPE: cytotoxicity at 10 µM
Note: state the figure and append the unit.

Worked cases, answers included:
{"COMPOUND": "COCCN1CCc2c(CNC(=O)c3nccn3C)cncc2C1", "cytotoxicity at 10 µM": "-107%"}
{"COMPOUND": "CC(C)NC(=O)[C@H]1C[C@@H]2[C@@H](C1)OCCN2Cc1ccco1", "cytotoxicity at 10 µM": "4.08%"}
{"COMPOUND": "Cc1ccc(SCCCNC(=O)c2cn(C3CCC(N)CC3)nn2)cc1 (stereo unspecified)", "cytotoxicity at 10 µM": "-8.33%"}
{"COMPOUND": "OCCN1CCCC(c2cccc(-c3ccccc3F)n2)C1 (stereo unspecified)", "cytotoxicity at 10 µM": "5.68%"}
{"COMPOUND": "Cn1cc(CN2CC[C@H]3O[C@H](C(=O)NC4CC4)CC[C@H]32)c2ccccc21", "cytotoxicity at 10 µM": "8.82%"}

*Q* Recall and state the measured cytotoxicity at 10 µM for Cn1cc(CN2CCn3c(CNC(=O)c4cccn4C)cnc3C2)cn1 .
*A* -3.47%

*Q* # return recorded cytotoxicity at 10 µM for input O=C(COCC1CC1)Nc1cc(-c2ccc(Br)s2)n[nH]1
*A* -155%

*Q* Assign cytotoxicity at 10 µM to the following record: O=C(C1CCC1)N1CCC2(COCc3cnc(N4CCOCC4)nc32)C1 (stereo unspecified)
*A* -11.8%

*Q* Consider the compound CC(CO)CNC(=O)c1cc2cccc(F)c2o1 (stereo unspecified) and give its recorded cytotoxicity at 10 µM.
*A* 8.13%

*Q* Annotate the compound Fc1cnc(N2CC3(CCN(Cc4ccsc4)C3)C2)nc1 with its measured cytotoxicity at 10 µM.
*A* -84.4%

*Q* Fill in cytotoxicity at 10 µM for record COc1cccc(-c2nnn(C3CCN(CC(F)(F)F)C3=O)n2)c1 (stereo unspecified)
*A* 3.34%

* * *

Each entry below lists one item and its recorded cytotoxicity at 10 µM value.
# ASSAY EXPLANATION: Toxicity liver stage against HepG2, at 10uM
# Assay type: cell-based
# Design: test concentration 10 uM, cell line HepG2-A16-CD81EGFP
# ASSAY CONTEXT: human, HepG2-A16-CD81EGFP cells; read-out: INHIBITION
Report as a plain number; the unit % is understood.

Known results for compounds:
{"COMPOUND": "CC(C)c1cc(C2CCN(C(=O)Cn3nc4ccccc4n3)CC2)[nH]n1", "UNIT DESCRIPTOR": "%", "cytotoxicity at 10 µM": 0.685}
{"COMPOUND": "COc1ccc(N2CCN(C(=O)Cn3nc(C)c(Cl)c3C)CC2)cc1", "UNIT DESCRIPTOR": "%", "cytotoxicity at 10 µM": 1.58}
{"COMPOUND": "Cc1nc(-c2ccnc(N3CCNCC3)n2)no1", "UNIT DESCRIPTOR": "%", "cytotoxicity at 10 µM": 2.63}
{"COMPOUND": "COc1ccnc(N2CCN(C(=O)N3CCOCC3)CC2)n1", "UNIT DESCRIPTOR": "%", "cytotoxicity at 10 µM": -1.64}
{"COMPOUND": "Cc1noc(C)c1CC(=O)N1CCCC(n2ccnc2C)C1 (stereo unspecified)", "UNIT DESCRIPTOR": "%", "cytotoxicity at 10 µM": -4.49}

*Q* Please report the measured cytotoxicity at 10 µM for Cc1noc([C@@]23CCO[C@@H]2CCN(C(=O)CN(C)C)C3)n1
*A* 10.1

* * *

# ASSAY EXPLANATION: Toxicity liver stage against HepG2, at 10uM
# Assay type: cell-based
# Design: test concentration 10 uM, cell line HepG2-A16-CD81EGFP
# ASSAY CONTEXT: human, HepG2-A16-CD81EGFP cells; read-out: INHIBITION
OBSERVATION TYPE: cytotoxicity at 10 µM (%)
Kindly provide the numeric value in % only, without the unit symbol.

Answered examples (3):
{"MOLECULE": "Cc1c(C2NC3(CCCC3)C(=O)N2CC2CC2)cc(C#N)n1C (configuration not stated)", "cytotoxicity at 10 µM, %": -1.99}
{"MOLECULE": "Nc1cc(-c2cc(C(=O)O)ccc2Cl)c2cc[nH]c2n1", "cytotoxicity at 10 µM, %": 1.94}
{"MOLECULE": "Cc1ccc(C(=O)N2CC(C(N)=O)O[C@H](C)C2)c(F)c1 (some centres not stated)", "cytotoxicity at 10 µM, %": -5.43}

*Q* Dear colleague, please send me the reported cytotoxicity at 10 µM for O=C(NCCc1noc(C2CCCC2)n1)c1cn2ccsc2n1 when you can.
*A* -0.454

*Q* Complete the entry with cytotoxicity at 10 µM for O=C(Nc1cc(-c2ccccc2)on1)N1CCN(CCO)CC1
*A* 3.3

*Q* Please look at this molecule and report its cytotoxicity at 10 µM: OCCNc1nc(NCCc2ccccc2)nc2nccnc12
*A* 5.91

*Q* Please report cytotoxicity at 10 µM for the following molecule: CCc1nc(C2CCCN2C(=O)c2cnc[nH]2)no1 (configuration not stated)
*A* -13.6

*Q* Fill in cytotoxicity at 10 µM for record Cc1nnc([C@@H]2C[C@H]3CN(C4CCC4)C[C@H]3O2)[nH]1
*A* 8.89

*Q* Answer with reported cytotoxicity at 10 µM of O=C(COCc1ccccc1)NCc1ccc(O)c(F)c1
*A* 1.05

*Q* Look up cytotoxicity at 10 µM of c1ccc(CCCN2CC(n3cccn3)C2)cc1 and report it.
*A* -3.83
